target: human GLP-1 receptor (human, UniProt P43220 24-463); assay: cell-based or functional assay
Where no end group is shown, it is not given here. [ ]: non-standard residue; d: D form. αMePhe(2,6-F2) = C[C@](N)(Cc1c(F)cccc1F)C(=O)O; αMePhe(2-F) = C[C@](N)(Cc1ccccc1F)C(=O)O; αMeBip(OMe) = alpha-methylated Bip(OMe); hhPhe = N[C@@H](CCCc1ccccc1)C(=O)O; αMeD = C[C@](N)(CC(=O)O)C(=O)O; αMeP = C[C@@]1(C(=O)O)CCCN1; αMeAPPA = not defined here; αMeS = C[C@](N)(CO)C(=O)O; Aib = CC(C)(N)C(=O)O
readoutLabel: cAMP release, % activity with respect to control, at 10 nM

# binder, measured
records = [
    ("VH[Aib]EGTFTSD[αMeBip(OMe)][αMeAPPA] (not fully specified (C-terminus); printed as VH-Aib-EGTFTSD-(αMe-Bip(OMe))-(αMe-APPA); reading uncertain) [Seq. ID. No. 139]", "89 % of control"),
    ("VH[αMeP]EGT[αMePhe(2-F)]T[αMeS]D[αMeBip(OMe)][αMeAPPA] (not fully specified (C-terminus); reading uncertain) [Seq. ID. No. 172]", "92 % of control"),
    ("VH[Aib]EGT[αMePhe(2,6-F2)]TS[αMeD][αMeBip(OMe)][hhPhe] (not fully specified (C-terminus)) [Seq. ID. No. 79]", "98 % of control"),
]

Next item in the queue.
[in] Find the recorded cAMP release, % activity with respect to control, at 10 nM belonging to VHSQGT[αMePhe(2,6-F2)]TS[αMeD][αMeBip(OMe)][αMeAPPA] (not fully specified (C-terminus); reading uncertain) [Seq. ID. No. 197] and report it.
[out] 99 % of control
